# target-under-test: Neurogenic locus notch homolog protein 3 (Homo sapiens)
# measurement-description: NOTCH3 binders on small-molecule microarray, primary screen, biochemical, 635/667 nm fluorescence (AID 1096)
# condition-label: NOTCH3 binding, 635 nm fluorescence, higher = more signal
quantity-kind: composite z-score
I'd appreciate a reply containing only the number, no unit.

Exercise: Return reported composite z-score; argument: `CO[C@@H]1COC(=O)CC=C[C@H](C)[C@H](OC)COC(=O)[C@@H]2CCCN2C(=O)CC=C[C@H]1C`
Solution: -0.128

Exercise: Now this one: `CCN1C(=O)[C@H]2[C@H]3[C@H](O)[C@H](O)CC(=NOCC=C(C)CCC=C(C)C)[C@@H]3CC[C@H]2C1=O`
Solution: 1.08

Exercise: Now this one: `O=C1[C@H]2[C@H]3[C@H](O)[C@H](O)CC(=NOC[C@@H](O)COCc4ccco4)[C@@H]3CC[C@H]2C(=O)N1c1cccc(Oc2ccccc2)c1`
Solution: -0.487

---

# target-under-test: Fibroblast growth factor 10 (Homo sapiens)
# measurement-description: FGF10 binders on small-molecule microarrays, primary screen, biochemical, small-molecule microarray, 635 nm fluorescence (AID 1102)
# condition-label: FGF10 binding, fluorescence 635 nm, higher = more signal
quantity-kind: composite z-score
I'd appreciate a reply containing only the number, no unit.

Exercise: What value of composite z-score on Fibroblast growth factor 10 (Homo sapiens) does `CC(C)(C)N1C(=O)[C@H]2[C@H]3[C@H](O)[C@H](O)CC(=NOC[C@@H](O)COCc4ccco4)[C@H]3CC[C@H]2C1=O` have?
Solution: 0.207

Exercise: Now this one: `COC(=O)C1=C(C)N(Cc2ccccc2)C2=C3C(=O)OCC[C@@H]3[C@@](O)(C(=O)OC)C(=O)N2[C@@H]1c1ccccc1`
Solution: 0.325

Exercise: Now this one: `CON=C(C)CCN1CCCc2nc(C)c(C)cc21`
Solution: 0.423

Exercise: Now this one: CCC1=NOC(CCC2CC(OC(=O)NCc3cccc4c3OCO4)CC3(CCCC(COC(=O)NCCc4ccc(Cl)cc4)O3)O2)C1 (stereo not drawn)
Solution: 1.41

Exercise: Now this one: `CCOC(=O)CCN1C(=O)[C@H]2[C@H]3[C@H](O)[C@H](O)CC(=NOCC(C)C)[C@@H]3CC[C@H]2C1=O`
Solution: -0.0809

Exercise: Now this one: `CC(=O)OC[C@H]1O[C@@H](ON=C(C)C)[C@H](OC(C)=O)[C@@H](OC(C)=O)[C@@H]1OC(C)=O`
Solution: -0.527

Exercise: Now this one: `CC(=O)OC[C@H]1O[C@@H](ON=C(C)CCN2CCCCc3nc(C)c(C)cc32)[C@H](OC(C)=O)[C@@H](OC(C)=O)[C@@H]1OC(C)=O`
Solution: 1.23

Exercise: Now this one: `O=C1C[C@H](c2ccccc2)[C@H](c2ccc(Br)cc2)O1`
Solution: 0.193

---

# measurement-description: RPMI8226 myeloma cell viability, profiling panel, resazurin fluorescence, basal, 24 h, PK04 Diversity Set (AID 1180);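 also: RPMI8826 multiple myeloma cell line at 5000 cells per well; test concentration not given here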
# condition-label: higher = more signal
Classify as follows. Reported z-score greater than or equal to 0.1: criterion met. Reported z-score below: criterion not met.

Exercise: Is z-score at least 0.1? Consider COC(=O)[C@H](C)NC(=O)CCC1CC(OC(=O)NCc2cccc3ccccc23)CC2(CCCC(COC(=O)NCc3cccc(C(F)(F)F)c3)O2)O1 (some centres undefined)
Solution: criterion met

Exercise: Now this one: `CC(C)(C)N1C(=O)[C@H]2[C@H]3[C@H](O)[C@H](O)CC(=NNC(=O)OCc4ccccc4)[C@@H]3CC[C@H]2C1=O`
Solution: criterion not met

Exercise: Now this one: `O=C1[C@H]2[C@H]3[C@H](O)[C@H](O)CC(=NOC[C@@H](O)COCc4ccco4)[C@@H]3CC[C@H]2C(=O)N1Cc1ccccc1`
Solution: criterion met

Exercise: Now this one: `CO[C@@H]1C=CCC(=O)N[C@@H](C)C(=O)OC[C@@H](NS(=O)(=O)c2ccc(C)cc2)[C@H](C)C=CCC(=O)OC[C@H]1C`
Solution: criterion met

Exercise: Now this one: `O=C1C=C[C@@H](O)[C@@H]2[C@@H]3C(=O)N(c4cccc(Oc5ccccc5)c4)C(=O)[C@@H]3CC[C@@H]12`
Solution: criterion not met

Exercise: Now this one: CCOC(=O)[C@H](CC(C)C)NC(=O)CCC1CC(OC(=O)NCc2ccc3c(c2)OCO3)CC2(CCCC(COC(=O)NCCc3ccccc3OC)O2)O1 (some centres undefined)
Solution: criterion met

Exercise: Now this one: `CC(C)=CCCC(C)=CCON=C1C[C@@H](O)[C@@H](O)[C@@H]2[C@@H]3C(=O)N(c4cccc(Oc5ccccc5)c4)C(=O)[C@@H]3CC[C@H]12`
Solution: criterion met

Exercise: Now this one: COC(=O)[C@H](C)NC(=O)CCC1CC(OC(=O)NCCc2ccc(F)cc2)CC2(CCCC(COC(=O)NCc3ccccc3)O2)O1 (some centres undefined)
Solution: criterion met

Exercise: Now this one: CCC1=NOC(CCC2CC(OC(=O)NCc3cccc4c3OCO4)CC3(CCCC(COC(=O)NCCc4ccc(Cl)cc4)O3)O2)C1 (centres undefined)
Solution: criterion met

Exercise: Now this one: `Cc1cc(C)c(-c2cc([C@H](C)ON=C[C@@H](C)[C@H](OCc3ccccc3)C(C)C)on2)c(C)c1`
Solution: criterion not met

Exercise: Now this one: `CCN1C(=O)[C@H]2[C@H]3[C@H](O)[C@H](O)CC(=NO[C@@H]4O[C@H](CO)[C@@H](O)[C@H](O)[C@H]4O)[C@H]3CC[C@H]2C1=O`
Solution: criterion not met

Exercise: Now this one: `CC(CCC(=O)OC[C@H]1O[C@H](C#Cc2ccccc2)C=C[C@@H]1Oc1ccc(C)cc1)=NOC[C@@H](C)[C@H](OCc1ccccc1)C(C)C`
Solution: criterion met

Exercise: Now this one: CC(C)=NOC(C)CN1CCCCc2nc(C)c(C)cc21 (centres undefined)
Solution: criterion not met

Exercise: Now this one: `CC(CCN1CCCc2nc(C)c(C)cc21)=NO[C@H](C)c1cn([C@H](CO)Cc2ccccc2)nn1`
Solution: criterion not met
